Reference source for all entries: patent US8835442B2

- TEST SYSTEM: human A2AR (Homo sapiens, UniProt P29274)
- Sequence (P29274 whole entry): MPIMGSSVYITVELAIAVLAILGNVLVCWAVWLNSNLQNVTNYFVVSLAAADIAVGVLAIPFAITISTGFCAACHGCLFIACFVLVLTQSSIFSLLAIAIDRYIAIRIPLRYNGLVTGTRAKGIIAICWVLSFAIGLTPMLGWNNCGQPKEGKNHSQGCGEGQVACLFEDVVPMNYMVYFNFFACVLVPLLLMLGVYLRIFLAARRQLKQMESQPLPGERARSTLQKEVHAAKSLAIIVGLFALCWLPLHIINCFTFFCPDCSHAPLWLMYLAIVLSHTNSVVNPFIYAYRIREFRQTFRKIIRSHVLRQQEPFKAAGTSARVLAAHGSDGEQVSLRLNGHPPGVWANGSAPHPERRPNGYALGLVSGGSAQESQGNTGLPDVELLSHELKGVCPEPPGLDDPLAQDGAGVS
- TEST DETAILS: Competitive radioligand binding assay, [3H] ZM 241385, membranes of HEK 293 cells stably expressing human A2AR
- MEASUREMENT CONTEXT: selectivity: Ki hA1 / Ki hA2A
PROPERTY: hA1/hA2A ratio

(a) C=CCn1c(=S)sc2c(=N)n(NC(N)=O)cnc21
(b) CCn1c(=S)sc2c(=N)n(NC(=O)c3ccco3)cnc21
Sort a and b by hA1/hA2A ratio descending and give the first. Provide the label of your selected option as the answer.
a
(a: 5.11, b: 0.0133)

(I) N=c1c2sc(=S)n(-c3ccccc3)c2ncn1NC(=O)c1ccco1
(II) CCCn1c(=S)sc2c(=N)n(NC(=O)c3ccco3)cnc21
Sort I and II by hA1/hA2A ratio descending and give the first. Provide the label of your selected option as the answer.
II
(II: 3.625, I: 0.026)

----------
- TEST SYSTEM: human A1R (Homo sapiens, UniProt P30542)
- Sequence (P30542 1-326): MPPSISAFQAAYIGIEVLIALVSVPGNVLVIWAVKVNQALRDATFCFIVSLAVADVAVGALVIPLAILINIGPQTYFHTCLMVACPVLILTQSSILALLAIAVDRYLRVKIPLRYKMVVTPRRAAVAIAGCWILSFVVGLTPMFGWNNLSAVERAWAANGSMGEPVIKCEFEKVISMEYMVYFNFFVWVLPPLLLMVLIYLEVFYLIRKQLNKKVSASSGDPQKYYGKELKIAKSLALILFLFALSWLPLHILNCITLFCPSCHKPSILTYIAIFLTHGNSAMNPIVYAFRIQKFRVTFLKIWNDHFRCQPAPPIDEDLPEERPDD
- TEST DETAILS: Competitive radioligand binding assay, [3H] DPCPX, membranes of HEK 293 cells stably expressing human A1R
PROPERTY: Ki (nM)

N=c1c2sc(=S)n(-c3ccc(I)cc3)c2ncn1NC(N)=O [Compound 20]; 2.5

(a) CCn1c(=S)sc2c(=N)n(NC(=O)c3ccco3)cnc21 [Compound 22]
(b) N=c1c2sc(=S)n(Cc3ccccc3)c2ncn1NC(N)=O [Compound 21]
Sort a and b by Ki descending and give the first. Provide the label of your selected option as the answer.
b

(a) CCCCn1c(=S)sc2c(=N)n(NC(N)=O)cnc21 [Compound 17]
(b) N=c1c2sc(=S)n(-c3ccccc3)c2ncn1NC(=O)c1ccco1 [Compound 26]
Which has the smaller recorded Ki, a or b ? Provide the label of your selected option as the answer.
b
(b: 0.0085 nM, a: 1.04 nM)

(1) C=CCn1c(=S)sc2c(=N)n(NC(N)=O)cnc21 [Compound 18]
(2) CCCn1c(=S)sc2c(=N)n(NC(=O)c3ccco3)cnc21 [Compound 23]
(3) CCCCn1c(=S)sc2c(=N)n(NC(=O)c3ccco3)cnc21 [Compound 24]
(4) N=c1c2sc(=S)n(-c3ccccc3)c2ncn1NC(N)=O [Compound 19]
Please order the records by their reported Ki, lowest number first. As an answer, provide the labels arranged in the order called for.
3, 2, 1, 4

----------
- TEST SYSTEM: human A2AR (Homo sapiens)
- TEST DETAILS: Competitive radioligand binding assay, [3H] ZM 241385, membranes of HEK 293 cells stably expressing human A2AR
- MEASUREMENT CONTEXT: read-out: hA2A binding Ki ± SD; displacement of 1 nM [3H] ZM 241385; HEK 293 membranes; test compounds 1 pM to 1 μM
PROPERTY: Ki (pM)
API: value field is a number in pM; no unit string.

Provide only the value of recorded Ki for `CCCn1c(=S)sc2c(=N)n(NC(N)=O)cnc21`
3.8
